Tested on: U251 CNS
ASSAY_SUMMARY: NCI tumour cell line growth inhibition, 48 h
Below is a list of entries, each paired with its recorded TGI value.

[[record]]
molecule = "CC(=O)Nc1cccc(C#Cc2cncnc2Nc2ccc(OCc3cccc(F)c3)c(Cl)c2)c1"
measured_quantity = "TGI"
result = "> 25 µM"

[[record]]
molecule = "O=C1C2C(C(=O)N1Cc1ccccc1)N(Cc1ccccc1)C(=O)N2Cc1ccccc1 (configuration not stated)"
measured_quantity = "TGI"
result = "> 100 µM"

[[record]]
molecule = "CCOC(=O)C[C@@]12CCCN[C@]1(C)CCc1ccccc12"
measured_quantity = "TGI"
result = "> 100 µM"

[[record]]
molecule = "Cc1ccc(-n2c3nc(=O)n(C)c(=O)c-3nc3ccccc32)c(C)c1"
measured_quantity = "TGI"
result = "32.1 µM"

[[record]]
molecule = "CC(=O)C1(C(=O)C(=[N+]=[N-])S(=O)(=O)c2ccccc2)CC1"
measured_quantity = "TGI"
result = "> 100 µM"


stdin: Bench note: what TGI did Cc1cc(OC2OC(CO)C(O)C(O)C2O)ccc1O (configuration not stated) show?
stdout: > 100 µM

stdin: Bench note: what TGI did Cc1ccc(S(=O)(=O)N/N=c2/sc3ccccc3n2C)cc1 show?
stdout: > 100 µM

stdin: Bench note: what TGI did Cc1ccc(S(=O)(=O)NC(=O)Nc2ccc(C(=O)O)cc2)cc1 show?
stdout: > 100 µM

stdin: Bench note: what TGI did CC(=O)OC12c3ccccc3C(c3ccccc31)C1C(=O)N(N=C(C)C)C(=O)C12 (configuration not stated) show?
stdout: > 100 µM

stdin: Bench note: what TGI did O=C(O)c1ccccc1C(=O)c1ccco1 show?
stdout: > 100 µM

stdin: Bench note: what TGI did Clc1[nH]nc2ccccc12 show?
stdout: > 100 µM

stdin: Bench note: what TGI did CCOC(=O)CNC(=O)c1[nH]cnc1/N=N/N(C)C show?
stdout: > 100 µM

stdin: Bench note: what TGI did O=C(OCCN=c1c2ccccc2ccc2ccccc12)c1cc([N+](=O)[O-])cc([N+](=O)[O-])c1 show?
stdout: > 100 µM

stdin: Bench note: what TGI did C#COc1cccc(Nc2ncnc3cc(NC(=O)[C@@H](C)Cl)ccc23)c1 show?
stdout: > 62.5 µM

stdin: Bench note: what TGI did Nc1c(C(=O)O)c2ccc([N+](=O)[O-])cc2c(=O)n1-c1nc2ccccc2s1 show?
stdout: > 100 µM

stdin: Bench note: what TGI did COc1ccc(C(=CCC(C)C2CCC3[C@@H]4C(OC(C)=O)CC5CC(OC(C)=O)CC[C@]5(C)C4CC(OC(C)=O)[C@]23C)c2ccc(OC)cc2)cc1 (some centres not stated) show?
stdout: > 100 µM

stdin: Bench note: what TGI did OCc1ccc(-c2ccc(-c3ccc(CO)o3)o2)o1 show?
stdout: > 100 µM

----------
Tested on: M19-MEL melanoma
ASSAY_SUMMARY: NCI tumour cell line growth inhibition, 48 h
MEASURED_QUANTITY: TGI

stdin: Bench note: what TGI did [C-]#[O+].[Cl][Sn]([Cl])[Cl].[Cl][Sn]([Cl])[Cl].[Pt].c1cnc2c(c1)ccc1cccnc12 show?
stdout: > 31.6 µM

stdin: Bench note: what TGI did CCOC(=O)C[C@@]12CCCN[C@]1(C)CCc1ccccc12 show?
stdout: > 100 µM

stdin: Bench note: what TGI did Cc1cc(-c2ccc(N=Nc3ccc4c(S(=O)(=O)O)cc(S(=O)(=O)O)c(N)c4c3O)c(C)c2)ccc1N=Nc1ccc2c(S(=O)(=O)O)cc(S(=O)(=O)O)c(N)c2c1O show?
stdout: > 100 µM

stdin: Bench note: what TGI did CCOC(=O)C1=C(C)N(NC(N)=O)C2(N)N(NC(N)=O)C(C)=C(C(=O)OCC)C12C#N (configuration not stated) show?
stdout: > 100 µM

stdin: Bench note: what TGI did O=C1C=CC2(CCC23C=CC(=O)O3)O1 (configuration not stated) show?
stdout: > 100 µM

Data origin, for the record: PubChem BioAssay (NCI)
